Molecular target: UniProtKB P08581
Sequence (P08581 25-1390): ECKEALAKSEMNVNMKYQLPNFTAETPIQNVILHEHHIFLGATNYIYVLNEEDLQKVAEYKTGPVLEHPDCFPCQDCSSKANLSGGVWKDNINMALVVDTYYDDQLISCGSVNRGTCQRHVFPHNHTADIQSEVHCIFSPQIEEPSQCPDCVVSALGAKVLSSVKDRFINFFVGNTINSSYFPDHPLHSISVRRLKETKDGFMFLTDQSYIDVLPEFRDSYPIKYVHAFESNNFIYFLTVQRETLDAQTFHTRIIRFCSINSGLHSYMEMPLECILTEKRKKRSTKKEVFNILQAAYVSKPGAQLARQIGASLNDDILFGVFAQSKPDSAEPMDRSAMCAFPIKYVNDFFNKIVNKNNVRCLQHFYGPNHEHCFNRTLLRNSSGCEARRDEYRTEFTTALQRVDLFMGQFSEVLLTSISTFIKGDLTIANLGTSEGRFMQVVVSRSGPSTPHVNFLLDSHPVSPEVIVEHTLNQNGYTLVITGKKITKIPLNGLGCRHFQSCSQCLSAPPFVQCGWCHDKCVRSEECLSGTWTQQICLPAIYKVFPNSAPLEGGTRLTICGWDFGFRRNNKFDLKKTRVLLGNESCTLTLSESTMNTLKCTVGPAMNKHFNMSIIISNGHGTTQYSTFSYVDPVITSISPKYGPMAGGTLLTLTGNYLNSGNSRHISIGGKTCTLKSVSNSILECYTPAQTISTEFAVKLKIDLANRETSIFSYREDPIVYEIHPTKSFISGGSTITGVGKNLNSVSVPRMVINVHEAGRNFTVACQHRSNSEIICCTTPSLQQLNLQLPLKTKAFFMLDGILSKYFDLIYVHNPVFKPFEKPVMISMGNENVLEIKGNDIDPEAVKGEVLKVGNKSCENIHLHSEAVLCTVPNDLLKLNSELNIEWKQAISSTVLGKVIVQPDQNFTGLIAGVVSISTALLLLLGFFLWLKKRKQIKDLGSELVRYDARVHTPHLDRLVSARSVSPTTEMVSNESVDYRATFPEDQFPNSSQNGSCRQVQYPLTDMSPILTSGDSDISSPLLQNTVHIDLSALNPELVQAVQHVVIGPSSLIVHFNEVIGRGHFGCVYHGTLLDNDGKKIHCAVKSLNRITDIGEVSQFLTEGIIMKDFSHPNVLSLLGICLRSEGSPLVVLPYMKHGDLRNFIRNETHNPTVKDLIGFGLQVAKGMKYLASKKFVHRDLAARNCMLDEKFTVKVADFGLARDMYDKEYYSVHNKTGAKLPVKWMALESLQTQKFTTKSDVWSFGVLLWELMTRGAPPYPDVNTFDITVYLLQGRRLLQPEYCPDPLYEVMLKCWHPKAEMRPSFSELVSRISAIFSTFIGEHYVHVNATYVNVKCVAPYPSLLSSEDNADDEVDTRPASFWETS
Experiment: Inhibition of c-Met kinase phosphorylation in MKN-45 cells (cell based ELISA)
Parameters: endogenous in cells; host or cells: MKN-45
Settings: 1 h
pIC50: −log10 of the molar value.
OBSERVATION_TYPE: pIC50

[
  {
    "MOLECULE": "NC(=O)c1ccc(-c2ccc3nnn(Cc4ccc5ncccc5c4)c3n2)cc1Cl [Ex 108]",
    "OBSERVATION_TYPE": "pIC50",
    "RESULT": "≥ 7.30"
  },
  {
    "MOLECULE": "CNC(=O)c1ccc(-c2ccc3nnn(Cc4ccc5ncccc5c4)c3n2)cc1 [Ex 9]",
    "OBSERVATION_TYPE": "pIC50",
    "RESULT": "6.82 to 7.30"
  },
  {
    "MOLECULE": "CCNC(=O)c1ccc(-c2ccc3nnn(Cc4ccc5ncccc5c4)c3n2)cc1Cl [Ex 119]",
    "OBSERVATION_TYPE": "pIC50",
    "RESULT": "≥ 7.30"
  }
]

// below: pIC50 requested for another molecule
For the record CC(c1ccc2ncccc2c1)n1nnc2ccc(-c3cnn(CCO)c3)nc21 (stereo not drawn) [Ex 164] , what value of pIC50 is listed for UniProtKB P08581?
6.82 to 7.30
